Ref: PubChem BioAssay AID1159580

- assayText: chemical genetic growth profiling, strain panel (AID 1159580);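 further: tested at 20 µM; growth read once vehicle control cultures reached saturation at 30 °C; 1 = growth at the plate median or of vehicle wells; lower values mean less growth of the strain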
- conditionContext: S. cerevisiae deletion strains, growth OD, locus YER002W, strain NOP16
Out of some 5,500 compounds screened, about 2,000 (36%) were called active. About 18% were inconclusive and are not listed. No stated cut-off is given here; in the data, active means normalized growth mostly below about 0.91 (no sharp cut-off); inconclusive means no clear call, values can overlap the other calls; inactive means mostly above about 0.92. This is one part of the list.
Field 'call' accepts 1 = active, -1 = inactive

# example entries with known answers
Cc1cn[nH]c1 ... -1
C[C@@H](NC(=O)/C(C#N)=C/c1ccc(O)c(O)c1)c1ccccc1 ... -1
C#CCN[C@H](C)Cc1ccccc1 ... -1
C[N+]1(C)CCOC(O)(c2ccc(-c3ccc(C4(O)C[N+](C)(C)CCO4)cc3)cc2)C1 (stereo unspecified) ... -1
Cc1cccc(C)c1OCC(N)C(C)C (stereo unspecified) ... -1
Cc1c(C)c2c(c(C)c1O)CCC(C)(CN1CCN(c3cc(N4CCCC4)nc(N4CCCC4)n3)CC1)O2 (stereo unspecified) ... 1

Task: For `Cc1[nH]c2ccc(O)cc2c1CCN` , which call appears in the assay record?
Output: -1

Task: Also `CN(C)C(=O)Oc1cccc([N+](C)(C)C)c1` ?
Output: -1

Task: Also `C[C@]12C=CC(=O)C=C1CC[C@@H]1C2=CC[C@]2(C)[C@@H](C(=O)CN3CCN(c4cc(N5CCCC5)nc(N5CCCC5)n4)CC3)CC[C@@H]12` ?
Output: -1

Task: Also CCN1CCCC1CNC(=O)c1cc(S(N)(=O)=O)ccc1OC (stereo unspecified) ?
Output: -1

Task: Also `C[N+]1(C)CCC(OC(=O)C(c2ccccc2)c2ccccc2)CC1` ?
Output: -1
